Biological target: UniProt:P08173
Sequence (P08173 whole entry): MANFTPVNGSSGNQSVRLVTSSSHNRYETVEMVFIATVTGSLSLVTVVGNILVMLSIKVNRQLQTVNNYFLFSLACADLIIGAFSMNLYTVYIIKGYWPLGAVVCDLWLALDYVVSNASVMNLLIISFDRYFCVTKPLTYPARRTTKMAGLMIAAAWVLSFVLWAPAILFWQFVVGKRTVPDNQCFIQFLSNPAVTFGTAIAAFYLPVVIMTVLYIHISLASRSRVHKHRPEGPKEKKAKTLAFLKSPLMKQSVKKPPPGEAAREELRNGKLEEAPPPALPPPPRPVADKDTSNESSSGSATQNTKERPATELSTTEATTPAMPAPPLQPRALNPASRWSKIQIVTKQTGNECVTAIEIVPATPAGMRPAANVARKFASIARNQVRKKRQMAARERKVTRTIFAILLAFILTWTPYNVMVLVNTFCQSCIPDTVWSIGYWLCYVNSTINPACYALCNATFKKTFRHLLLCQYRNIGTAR
Assay: Inhibition of M4 (unknown origin) at 10 uM relative to control
quantity.kind: inhibition at 10 µM (%)
Unit % implied. Number only.

What inhibition at 10 µM value was documented for this molecule, NCCCn1c(=O)c2cc(F)ccc2n2c(=S)[nH]nc12 ? 73

====

# Lookup of reported t1/2 keyed by entry
Test: Half life in rat liver microsomes at 1 uM measured up to 60 mins in presence of NADPH generating system
Conditions: 1 h

Reference set, count: 4
                                   compound  data_value
0  CN1CCCC1CCn1c(=O)c2cc(F)ccc2n2c(=S)[nH]nc12 (racemic)    > 30 min
1  O=c1c2cc(F)ccc2n2c(=S)[nH]nc2n1CCN1CCCCC1    > 30 min
2          CCn1c(=O)c2ccccc2n2c(=S)[nH]nc12    > 30 min
3  O=C(NCCCn1c(=O)c2cc(F)ccc2n2c(=S)[nH]nc12)C1CCCNC1 (racemic)    > 30 min

What t1/2 value was documented for this compound, CN1CCN(CCn2c(=O)c3cc(F)ccc3n3c(=S)[nH]nc23)CC1 ? > 30 min

What t1/2 value was documented for this compound, CC(C)(C)OC(=O)CC[C@H](N)C(=O)NCCCn1c(=O)c2cc(F)ccc2n2c(=S)[nH]nc12 ? > 30 min

What t1/2 value was documented for this compound, CCOP(=O)(CCn1c(=O)c2cc(F)ccc2n2c(=S)[nH]nc12)OCC ? > 30 min

What t1/2 value was documented for this compound, O=c1c2cc(F)ccc2n2c(=S)[nH]nc2n1CC1CC1 ? > 30 min

What t1/2 value was documented for this compound, O=c1c2cccnc2n2c(=S)[nH]nc2n1CCc1ccccc1 ? > 30 min

What t1/2 value was documented for this compound, Nc1nnc2n(CCc3ccccc3)c(=O)c3cc(F)ccc3n12 ? 29.4 min

What t1/2 value was documented for this compound, Cc1ccc2c(c1)c(=O)n(CCc1ccccc1)c1n[nH]c(=S)n21 ? > 30 min

What t1/2 value was documented for this compound, CC(C)(C)[C@H]1CC[C@H](C(=O)NCCCn2c(=O)c3cc(F)ccc3n3c(=S)[nH]nc23)CC1 ? > 30 min

What t1/2 value was documented for this compound, NCCOCCOCCOCCC(=O)NCCCn1c(=O)c2cc(F)ccc2n2c(=S)[nH]nc12 ? > 30 min

What t1/2 value was documented for this compound, O=c1c2cc(F)ccc2n2c(=S)[nH]nc2n1CCc1ccc(Cl)cc1 ? > 30 min

What t1/2 value was documented for this compound, O=c1c2cc(N3CCOCC3)ccc2n2c(=S)[nH]nc2n1CCc1ccccc1 ? > 30 min

What t1/2 value was documented for this compound, O=c1c2cc(Cl)ccc2n2c(=S)[nH]nc2n1CCC(F)(F)F ? > 30 min

What t1/2 value was documented for this compound, O=c1c2ccccc2n2c(=S)[nH]nc2n1CCC(F)(F)F ? > 30 min

====

Test: Half life in rat liver microsomes at 1 uM measured up to 60 mins in presence of NADPH generating system
Conditions: 1 h
quantity.kind: t1/2 (min)
Unit min implied. Number only.

Reference set, count: 3
>>> print(df.to_string())
                            chemical_string  quantity_kind  unit_string  data_value
0   Cc1nnc2n(CCc3ccccc3)c(=O)c3cc(F)ccc3n12           t1/2          min        10.7
1  Cc1ccc(CC(=O)NCCCn2c(=O)c3cc(F)ccc3n3c(=S)[nH]nc23)cc1           t1/2          min        23.9
2  O=c1c2cc(F)ccc2n2c(=S)[nH]nc2n1CCCc1ccccc1           t1/2          min         8.8

Here is another compound to look at.
What t1/2 value was documented for this compound, O=c1c2ccncc2n2c(=S)[nH]nc2n1CCc1ccccc1 ? 15.8

====

Test: in vitro
Details: PAMPA
Description: Permeability of the compound by PAMPA
quantity.kind: Papp (×10⁻⁶ cm/s)
Unit ×10⁻⁶ cm/s implied. Number only.

What Papp value was documented for this molecule, O=c1c2cc(F)ccc2n2c(=S)[nH]nc2n1Cc1ccccc1 ? 841

What Papp value was documented for this molecule, O=c1c2cc(F)ccc2n2c(=S)[nH]nc2n1CCCO ? 222

====

Experiment: Aqueous solubility of compound
Assay type: physicochemical
Settings: buffer; read-out: solubility
quantity.kind: solubility

What solubility value was documented for this molecule, COc1cccc(CC(=O)NCCCn2c(=O)c3cc(F)ccc3n3c(=S)[nH]nc23)c1 ? > 65 µg/mL

====

Molecular target: Muscarinic acetylcholine receptor M3 (Homo sapiens, UniProt P20309)
Sequence (P20309 whole entry): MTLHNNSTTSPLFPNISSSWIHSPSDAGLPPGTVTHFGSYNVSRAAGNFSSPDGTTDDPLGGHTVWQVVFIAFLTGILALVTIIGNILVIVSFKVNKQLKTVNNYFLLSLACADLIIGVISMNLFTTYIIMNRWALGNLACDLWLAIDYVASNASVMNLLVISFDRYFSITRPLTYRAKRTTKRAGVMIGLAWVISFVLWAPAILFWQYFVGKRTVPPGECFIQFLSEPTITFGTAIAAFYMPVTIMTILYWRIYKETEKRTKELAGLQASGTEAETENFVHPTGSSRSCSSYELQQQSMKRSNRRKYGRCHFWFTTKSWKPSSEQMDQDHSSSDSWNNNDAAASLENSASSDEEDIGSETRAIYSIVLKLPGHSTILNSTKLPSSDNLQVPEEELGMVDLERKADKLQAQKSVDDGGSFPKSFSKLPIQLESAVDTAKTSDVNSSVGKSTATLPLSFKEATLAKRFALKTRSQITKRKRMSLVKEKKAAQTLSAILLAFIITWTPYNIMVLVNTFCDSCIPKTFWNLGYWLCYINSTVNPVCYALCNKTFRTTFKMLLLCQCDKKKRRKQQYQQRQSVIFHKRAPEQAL
Test: Inhibition of M3 (unknown origin) at 10 uM relative to control
quantity.kind: inhibition at 10 µM

What inhibition at 10 µM value was documented for this compound, NCCCn1c(=O)c2cc(F)ccc2n2c(=S)[nH]nc12 ? 100%

====

Test: in vitro
Conditions: PAMPA
quantity.kind: Papp (×10⁻⁶ cm/s)
Unit ×10⁻⁶ cm/s implied. Number only.

>>> print(df.to_string())
                                   molecule  quantity_kind  data_value
0  O=C(NCCCn1c(=O)c2cc(F)ccc2n2c(=S)[nH]nc12)C1CCOCC1           Papp           8
1  O=c1c2cc(F)ccc2n2c(=S)[nH]nc2n1CCC(F)(F)F           Papp         117
2  NS(=O)(=O)CCCC(=O)NCCCn1c(=O)c2cc(F)ccc2n2c(=S)[nH]nc12           Papp           3
3  CC(=O)Nc1ccc2c(c1)c(=O)n(CCc1ccccc1)c1n[nH]c(=S)n21           Papp         253
4  CN(C)c1ccc2c(c1)c(=O)n(CCc1ccccc1)c1n[nH]c(=S)n21           Papp         356

What Papp value was documented for this molecule, O=c1c2cc(F)ccc2n2c(=S)[nH]nc2n1CCN1CCOCC1 ? 67

What Papp value was documented for this molecule, CC(C)(C)OC(=O)NC1CCC(C(=O)NCCCn2c(=O)c3cc(F)ccc3n3c(=S)[nH]nc23)CC1 (racemic) ? 330

What Papp value was documented for this molecule, CC(CN(C)C)n1c(=O)c2cc(F)ccc2n2c(=S)[nH]nc12 (racemic) ? 186

====

Assay: in vitro
Details: PAMPA
Each record's class is read off its Papp using these ranges: lower = under 90 ×10⁻⁶ cm/s, middle = from 90 ×10⁻⁶ cm/s up to 200 ×10⁻⁶ cm/s, upper = 200 ×10⁻⁶ cm/s and over

Please review the entries below; each comes with its answer.
                            chemical_string   class
0  O=c1c2cc(Br)ccc2n2c(=S)[nH]nc2n1CCc1ccccc1  middle
1  O=c1c2cc(F)ccc2n2c(=S)[nH]nc2n1CCc1ccccc1   lower
2     O=c1c2cc(F)ccc2n2c(=S)[nH]nc2n1CC1CC1   lower
3  CC(C)(C)OC(=O)N1CC(CCn2c(=O)c3cc(F)ccc3n3c(=S)[nH]nc23)C1   upper
4  CNC(=S)N1CN(CCc2ccccc2)C(=O)c2cc(F)ccc21  middle
5            CCCCn1c(=O)c2ccccc2n2c(S)nnc12   lower
6  NCCCn1c(=O)c2cc(F)ccc2n2c(=S)[nH]nc12.O=C(O)C(F)(F)F   lower

Switching to the query record.
# bin label for O=C(NCCCn1c(=O)c2cc(F)ccc2n2c(=S)[nH]nc12)c1ccccc1 upper

====

Assay: Aqueous solubility of compound
Format: physicochemical
Details: buffer
quantity.kind: solubility (µg/mL)
Unit µg/mL implied. Number only.

>>> print(df.to_string())
                            chemical_string  data_value
0  CNC(=S)N1CN(CCc2ccccc2)C(=O)c2cc(F)ccc21         4.5

What solubility value was documented for this compound, O=c1c2ccncc2n2c(=S)[nH]nc2n1CCc1ccccc1 ? 17.3
